- Tested on: Lgr5+ cells (cochlear stem cells)
- TEST_NAME: Lgr5+ assay: expansion of Lgr5-positive cochlear cells in 3D culture
- Type: cell-based, mouse
- ASSAY_CONDITIONS: 10 days culture with EGF, bFGF, IGF1; approximate values
The reader will find reported % of Lgr5+ Positive Cells values listed item by item below.
OBSERVATION_TYPE: % of Lgr5+ Positive Cells (%)

compound="CCn1cc(C(=O)O)c(=O)c2c(N)c(F)c(NC3Cc4ccccc4C3)cc21 [Compound I-11]" value_units=% relational_operator== numeric_value=17
compound="CCn1cc(C(=O)O)c(=O)c2c(N)c(F)c(N[C@@H]3C[C@@H]3c3ccccc3)cc21 (relative stereo) [Compound I-23]" value_units=% relational_operator== numeric_value=14
compound="Cn1cc(C(=O)O)c(=O)c2c(N)c(F)c(NCCN[C@@H]3C[C@H]3c3ccccc3)cc21 (relative stereo) [Compound I-86]" value_units=% relational_operator== numeric_value=4
compound="CCn1cc(C(=O)O)c(=O)c2c(N)c(F)c(NC3CCOCC3)cc21 [Compound I-8]" value_units=% relational_operator== numeric_value=21
compound="CCn1cc(C(=O)O)c(=O)c2c(N)c(F)c(NCCN[C@@H]3C[C@@]34CCc3ccccc34)cc21 (relative stereo) [Compound I-82]" value_units=% relational_operator== numeric_value=48
compound="CC(C)n1cc(C(=O)O)c(=O)c2c(N)c(F)c(NCCN[C@@H]3C[C@H]3c3ccccc3)cc21 (relative stereo) [Compound I-88]" value_units=% relational_operator== numeric_value=32
compound="CCn1cc(C#N)c(=O)c2c(N)c(F)c(NCCN[C@@H]3C[C@H]3c3ccccc3)cc21 (relative stereo) [Compound I-84]" value_units=% relational_operator== numeric_value=9
compound="CCn1cc(C(=O)O)c(=O)c2c(N)c(F)c(NC3CC(N[C@@H]4C[C@H]4c4ccccc4)C3)cc21 (relative stereo) [Compound I-70]" value_units=% relational_operator== numeric_value=30
compound="CCn1cc(C(=O)O)c(=O)c2c(N)cc(NCCCc3ccccc3)cc21 [Compound I-57]" value_units=% relational_operator== numeric_value=1
compound="CCn1cc(C(=O)O)c(=O)c2c(N)c(F)c(NCCN[C@@H]3C[C@H]3c3ccccc3)cc21 (relative stereo) [Compound I-29]" value_units=% relational_operator== numeric_value=38
compound="CCn1cc(C(=O)O)c(=O)c2c(N)c(F)c(N[C@H]3C[C@H](c4ccccc4)C3)cc21 [Compound I-60]" value_units=% relational_operator== numeric_value=30
compound="CCn1cc(C(=O)O)c(=O)c2c(N)c(F)c(NC3CCC3)cc21 [Compound I-12]" value_units=% relational_operator== numeric_value=25
compound="CCC(CC)n1cc(C(=O)O)c(=O)c2c(C)c(F)c(NC3CCCCC3)cc21 [Compound I-3]" value_units=% relational_operator=< numeric_value=5
compound="CCn1cc(C(=O)O)c(=O)c2c(N)c(F)c(N[C@H]3CC[C@@H](N[C@@H]4C[C@H]4c4ccccc4)CC3)cc21 (relative stereo) [Compound I-28]" value_units=% relational_operator== numeric_value=40

====

Items are presented alongside their recorded Papp A→B at 2 h, 10 μM.
- TEST_NAME: Caco-2 cell permeability assay
- Format: in vitro ADME
- ASSAY_CONDITIONS: human, pH 7.4; Caco-2, apical to basolateral, 10 μM, 2 hours; approximate values
OBSERVATION_TYPE: Papp A→B at 2 h, 10 μM (×10⁻⁶ cm/s)

compound="CCn1cc(C(=O)O)c(=O)c2c(N)c(F)c(N[C@@H]3C[C@H]3c3ccccc3)cc21 (single isomer, unassigned) [Compound I-20]" value_units="×10⁻⁶ cm/s" numeric_value=6.1
compound="CCn1cc(C(=O)O)c(=O)c2c(N)c(F)c(NCCCc3ccccc3)cc21 [Compound I-19]" value_units="×10⁻⁶ cm/s" numeric_value=5.9
compound="CCn1cc(C(=O)O)c(=O)c2c(N)c(F)c(N[C@H]3CC[C@@H](N[C@@H]4C[C@H]4c4ccccc4)CC3)cc21 (relative stereo) [Compound I-28]" value_units="×10⁻⁶ cm/s" numeric_value=3.1
compound="CCn1cc(C(N)=O)c(=O)c2c(N)c(F)c(NCCc3ccccc3)cc21 [Compound I-66]" value_units="×10⁻⁶ cm/s" numeric_value=1.8
